# subject of test: JAK3 (Homo sapiens, UniProt P52333)
# Construct: purchased Thermo fisher PV3855
# Sequence (P52333 781-1124 limits assumed): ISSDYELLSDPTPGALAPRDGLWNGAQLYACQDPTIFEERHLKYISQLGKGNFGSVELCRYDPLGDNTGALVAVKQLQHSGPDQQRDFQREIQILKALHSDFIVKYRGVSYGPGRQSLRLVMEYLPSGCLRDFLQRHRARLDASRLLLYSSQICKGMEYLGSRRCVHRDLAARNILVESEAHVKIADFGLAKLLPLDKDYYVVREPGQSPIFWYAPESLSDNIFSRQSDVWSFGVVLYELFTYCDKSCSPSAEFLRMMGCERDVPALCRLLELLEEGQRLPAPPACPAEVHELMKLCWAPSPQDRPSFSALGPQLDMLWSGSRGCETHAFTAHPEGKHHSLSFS
# experiment: JAK3 biochemical assay (ADP-GLO Kinase Assay)
# experimental setup: ratio of JAK3 IC50 to HPK1 IC50; first testing facility
attribute measured: JAKs/HPK1 IC50 Ratio, B*

[[record]]
compound = "COc1cc2c(cc1Nc1ncc(Cl)c(N3CC(C)(CO)c4ccccc43)n1)CN(C)CC2 (stereo not drawn)"
reported_result = 60

[[record]]
compound = "COc1cc2c(cc1Nc1ncc(Cl)c(N3CCn4c3cccc4=O)n1)CN(C)CC2"
reported_result = 31

[[record]]
compound = "COc1cc2c(cc1Nc1ncc(Cl)c(N3CC(C(=O)NO)c4ccccc43)n1)CN(C)CC2 (stereo not drawn)"
reported_result = 373

[[record]]
compound = "COc1cc2c(cc1Nc1ncc(F)c(N3CC(C(=O)O)c4ccccc43)n1)CN(C)CC2 (stereo not drawn)"
reported_result = 269

[[record]]
compound = "COc1cc2c(cc1Nc1ncc(Cl)c(N3CC(C#N)c4ccccc43)n1)CN(C)CC2 (stereo not drawn)"
reported_result = 100


[P] COc1cc2c(cc1Nc1ncc(Cl)c(-n3cc(CC(=O)NCC#N)c4ccccc43)n1)CN(C)CC2
[Q] COc1cc2c(cc1Nc1ncc(Cl)c(N3CC(C)(CC(=O)O)c4ccc(F)cc43)n1)CN(C)CC2 (single isomer, unassigned) [Example 153]
Q: I would appreciate it if you could say which entry, P or Q , has the lower JAKs/HPK1 IC50 Ratio, B* value. In your reply, give the label of the chosen option.
Ans: Q
(Q: 358, P: 1304)

[1] COc1nc2c(cc1Nc1ncc(Cl)c(N3CCc4ncccc43)n1)CN(C)CC2
[2] COc1cc2c(cc1Nc1ncc(Cl)c(N3CCc4ccccc43)n1)CN(C)CC2
Q: Could you please tell me which of these two has the higher JAKs/HPK1 IC50 Ratio, B*: 1 or 2 ? Answer format: the label of the selected item.
Ans: 2
